target: LPA1 (Homo sapiens, UniProt Q92633); assay: LPA1 Migration Assay (Oris); conditions: read-out: Cell Migration EC50
Sequence (Q92633 whole entry): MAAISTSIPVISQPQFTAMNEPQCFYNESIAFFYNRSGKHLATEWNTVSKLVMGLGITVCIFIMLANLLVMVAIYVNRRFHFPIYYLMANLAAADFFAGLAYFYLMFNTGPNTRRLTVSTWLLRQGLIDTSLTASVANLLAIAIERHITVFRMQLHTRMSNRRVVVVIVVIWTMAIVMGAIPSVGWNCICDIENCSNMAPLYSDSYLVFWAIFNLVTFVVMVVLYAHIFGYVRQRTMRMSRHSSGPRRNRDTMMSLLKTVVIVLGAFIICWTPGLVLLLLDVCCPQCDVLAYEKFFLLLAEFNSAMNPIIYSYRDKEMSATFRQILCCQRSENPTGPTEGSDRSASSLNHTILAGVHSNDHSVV
pEC50: −log10 of the molar value.
measured-endpoint: pEC50

Here are 5 molecules together with their reported answers.
molecule: C[C@@H](OC(=O)Nc1c(-c2cc3sc(-c4cc(Cl)c(C5(C(=O)O)CC5)cc4F)cc3s2)cnn1C)c1ccccc1
assayed-system: LPA1 (Homo sapiens, UniProt Q92633)
pEC50: 6.30 to 7.30

molecule: CCn1ncc(-c2ccc(-c3cc(F)c(Oc4ncccc4C(=O)O)c(F)c3)cc2)c1NC(=O)O[C@H](C)c1ccccc1
assayed-system: LPA1 (Homo sapiens, UniProt Q92633)
pEC50: > 7.30

molecule: C[C@@H](OC(=O)Nc1c(-c2cc3sc(-c4ccc(C5(C(=O)O)CC5)cc4Cl)cc3s2)nnn1C)c1ccccc1
assayed-system: LPA1 (Homo sapiens, UniProt Q92633)
pEC50: 6.30 to 7.30

molecule: Cc1nsc(-c2ccc(-c3cc4sc(C5(C(=O)O)CC5)cc4s3)cc2)c1NC(=O)O[C@H](C)c1ccccc1
assayed-system: LPA1 (Homo sapiens, UniProt Q92633)
pEC50: 6.30 to 7.30

molecule: Cc1nsc(-c2ccc(-c3ccc(OC(C)(C)C(=O)O)cc3)cc2)c1NC(=O)O[C@H](C)c1ccccc1
assayed-system: LPA1 (Homo sapiens, UniProt Q92633)
pEC50: < 6.30

Find pEC50 (LPA1 (Homo sapiens, UniProt Q92633)) for the entry Cc1noc(-c2cc3sc(C#CC4(C(=O)O)CC4)cc3s2)c1NC(=O)O[C@H](C)c1ccccc1
6.30 to 7.30

Now this one: Cc1noc(-c2ccc(-c3ccc(Oc4cc(F)ccc4C(=O)O)cc3)cc2)c1NC(=O)O[C@H](C)c1ccccc1
6.30 to 7.30

Now this one: C[C@@H](OC(=O)Nc1c(-c2ccc(-c3cc4sc(C5(C(=O)O)CC5)cc4s3)cc2)cnn1C)c1ccccc1
6.30 to 7.30

Now this one: C[C@@H](OC(=O)Nc1c(-c2ccc(-c3ccc(OC(C)(C)C(=O)O)cc3)cc2)cnn1C)c1ccccc1
< 6.30

Now this one: C[C@@H](OC(=O)Nc1cccnc1C#Cc1cc2sc(C3(C(=O)O)CC3)cc2s1)c1ccccc1
< 6.30

Now this one: COCCOC(=O)C1(c2cc3sc(C#Cc4cnn(C)c4NC(=O)O[C@H](C)c4ccccc4)cc3s2)CC1
6.30 to 7.30

Now this one: Cc1nsc(-c2ccc(-c3ccc(C4(C(=O)O)CC4)cc3)cc2)c1NC(=O)OC(c1ccccc1)C(F)(F)F (single isomer, unassigned)
6.30 to 7.30

Now this one: Cc1noc(-c2ccc(-c3ccc(S(=O)(=O)N4CCCC4)cc3)cc2)c1NC(=O)O[C@H](C)c1ccccc1
< 6.30

Now this one: Cc1noc(-c2ccc(-c3ccc(Oc4cnccc4C(=O)O)cc3)cc2)c1NC(=O)O[C@H](C)c1ccccc1
6.30 to 7.30

Now this one: C[C@@H](OC(=O)Nc1c(-c2ccc(-c3ccc(Oc4cc(F)ccc4C(=O)O)cc3)cc2)nnn1C)c1ccccc1
> 7.30
